testedTarget: GABAA receptors in activated human CD4+ T cells (Homo sapiens)
Sequence (P28476 21-465): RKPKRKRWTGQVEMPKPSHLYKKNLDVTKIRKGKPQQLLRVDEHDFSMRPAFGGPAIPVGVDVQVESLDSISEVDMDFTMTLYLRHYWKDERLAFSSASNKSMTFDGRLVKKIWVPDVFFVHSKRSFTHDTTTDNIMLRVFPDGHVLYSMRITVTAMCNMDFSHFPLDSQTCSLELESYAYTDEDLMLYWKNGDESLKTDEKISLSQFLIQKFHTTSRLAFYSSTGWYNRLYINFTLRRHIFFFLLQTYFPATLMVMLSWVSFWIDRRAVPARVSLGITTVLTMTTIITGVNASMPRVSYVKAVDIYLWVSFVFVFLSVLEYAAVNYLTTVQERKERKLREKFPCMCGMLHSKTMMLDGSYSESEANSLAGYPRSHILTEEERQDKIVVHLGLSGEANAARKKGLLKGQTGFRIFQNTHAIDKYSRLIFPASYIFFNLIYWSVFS
assayText: Calcium imaging: agonist-evoked intracellular Ca2+ response in activated CD4+ T cells
Format: cell-based
condition: read-out: EC50, half-maximal activation concentration of the evoked Ca2+ signal; activated CD4+ T cells, 72 h post-activation, 1 nM insulin last 24 h, 5.5 mM glucose
measuredQuantity: EC50 (nM)
Answers are plain numbers, in nM.

Study these solved cases before continuing.
INSERT INTO measurements (compound, measuredquantity, readingunit, resultvalue) VALUES
  ('Oc1noc2c1CCNC2 [THIP]', 'EC50', 'nM', 0.005),
  ('NC/C=C/C(=O)O [TACA, trans-4-aminocrotonic acid]', 'EC50', 'nM', 2.2);

The record that follows has no EC50 shown yet.
[ask] Query for GABAA receptors in activated human CD4+ T cells (Homo sapiens): what EC50 does the record show for NCc1cc(=O)[nH]o1 [muscimol] ?
[reply] 0.162
